target: EPAC1^FL (Homo sapiens)
Sequence (O95398 43-923): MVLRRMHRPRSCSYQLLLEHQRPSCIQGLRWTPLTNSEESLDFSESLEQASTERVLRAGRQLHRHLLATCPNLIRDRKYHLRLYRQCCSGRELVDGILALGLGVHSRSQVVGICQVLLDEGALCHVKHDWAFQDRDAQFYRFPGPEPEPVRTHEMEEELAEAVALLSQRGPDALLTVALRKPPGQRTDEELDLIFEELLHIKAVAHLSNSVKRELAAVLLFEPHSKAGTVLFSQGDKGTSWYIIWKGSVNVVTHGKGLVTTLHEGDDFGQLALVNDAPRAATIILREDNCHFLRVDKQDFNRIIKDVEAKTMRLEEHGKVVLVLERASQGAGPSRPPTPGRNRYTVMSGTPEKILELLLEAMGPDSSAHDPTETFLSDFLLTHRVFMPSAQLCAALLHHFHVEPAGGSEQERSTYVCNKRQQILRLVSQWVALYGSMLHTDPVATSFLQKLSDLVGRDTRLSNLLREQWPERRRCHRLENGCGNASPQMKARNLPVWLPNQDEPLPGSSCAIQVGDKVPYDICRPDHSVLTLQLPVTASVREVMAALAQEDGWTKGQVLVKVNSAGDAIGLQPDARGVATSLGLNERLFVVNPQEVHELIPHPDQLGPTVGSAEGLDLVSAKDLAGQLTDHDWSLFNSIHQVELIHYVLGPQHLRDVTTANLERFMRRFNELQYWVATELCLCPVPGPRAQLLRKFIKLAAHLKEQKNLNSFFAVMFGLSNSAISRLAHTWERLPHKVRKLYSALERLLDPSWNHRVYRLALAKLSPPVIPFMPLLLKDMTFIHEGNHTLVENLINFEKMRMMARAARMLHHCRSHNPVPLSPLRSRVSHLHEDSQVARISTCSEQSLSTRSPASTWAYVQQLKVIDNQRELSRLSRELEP
measure: pKd
Keep it numeric: pKd is minus log10 of the concentration in mol/L.

INPUT: pKd of CO[C@@H]1[C@@H]2OP(=O)(O)OC[C@H]2O[C@H]1n1c(Sc2ccc(Cl)cc2)nc2c(N)ncnc21 on EPAC1^FL (Homo sapiens)?
OUTPUT: 5.80
